These measurements were taken from PubChem BioAssay (NCATS).

- Protocol Summary: qHTS of pediatric cancer cell lines to identify multiple opportunities for drug repurposing: Primary screen for Rh30 cells (AID 1347107); note: % is set by controls: 0 for no effect and ±100 for the full control effect; nearly all actives have a fitted effect of over 75% in size
- Experimental Context: Rh30 rhabdomyosarcoma viability, CellTiter-Glo luminescence, 48 h; series mostly up to 46 µM
Inconclusive results are not listed. The source made the active and inactive calls. Calls come from the whole dose curve; as a rule, active = well fitted cell-killing curve with a large enough effect; inconclusive = small, poorly fitted or top-dose-only effect; inactive = no such curve, though single readings can be large or run the other way.
Measured Endpoint: outcome

C#C[C@]1(O)CC[C@H]2[C@@H]3CCc4cc(OC5CCCC5)ccc4[C@H]3CC[C@@]21C :: inactive
OC[C@H]1O[C@H](O[C@]2(CCl)O[C@H](CCl)[C@@H](O)[C@@H]2O)[C@H](O)[C@@H](O)[C@H]1Cl :: inactive
O=C1OC(c2ccc(O)cc2)(c2ccc(O)cc2)c2ccccc21 :: inactive

----------
- Protocol Summary: qHTS assay for small molecule activators of the nuclear factor-kappa B (NF-kB) signaling pathway (AID 651749); note: % of control where 0% means no effect
- Experimental Context: NF-kB-bla ME-180 cells, beta-lactamase FRET ratio, 16 h; active compounds read high
Inconclusive results are not listed.
Measured Endpoint: activation (%)
Give just the numeric value; % need not be written.

Known activation results, listed for orientation:
Nc1ccc(C(=O)O)cc1 :: 0.93
Cc1cc(=O)n(-c2ccccc2)n1C :: -1.22
COc1cccc2c1C(=O)c1c(O)c3c(c(O)c1C2=O)C[C@@](O)(C(=O)CO)C[C@@H]3O[C@H]1C[C@H](N)[C@H](O)[C@H](C)O1 :: -4.76
CN(C)C(=S)SC(=S)N(C)C :: -1.81

Here is another compound to look at.
Ask | Using the record for CC(O)C(=O)O (stereo not given) , report its activation.
Reply | -0.579

----------
- Tested on: CAOV3
- Protocol Summary: Primary qHTS to identify gynecologic anti-cancer compounds using libraries of approved drugs and bioactive compounds (AID 1345084); note: nearly all actives have a fitted effect of over 55% in size
- Experimental Context: Gynecologic cancer cell panel viability, ATPlite luminescence, 48 h; series mostly up to 57.5 µM
Records with an inconclusive call do not appear. The source made the active and inactive calls. Calls follow the shape of the dose curve; as a rule, active = well fitted cell-killing curve with a large enough effect; inconclusive = small, poorly fitted or top-dose-only effect, or effect the other way; inactive = flat fitted curve, though single readings scatter.
Would you mind answering with one of these outcomes? TRUE (active), FALSE (inactive)

Below, 4 molecules whose answers are already recorded.
CCOc1ccc2nc3cc(N)ccc3c(N)c2c1 :: TRUE
CN(C)CC/C=C1/c2ccccc2COc2ccc(CC(=O)O)cc21 :: FALSE
CCOC(=O)c1cccc(N)c1 :: FALSE
OC[C@@H](O)[C@@H](O[C@@H]1O[C@H](CO)[C@H](O)[C@H](O)[C@H]1O)[C@H](O)[C@@H](O)CO :: FALSE

Ask | // param item: CC(=O)OCC(=O)[C@@]1(O)CC[C@H]2[C@@H]3CCC4=CC(=O)C=C[C@]4(C)[C@H]3[C@@H](O)C[C@@]21C ; yields the recorded call
Reply | FALSE

----------
- Protocol Summary: qHTS profiling for inhibitors of Plasmodium falciparum proliferation (AID 504749);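 note: 0% = DMSO vehicle and full inhibition = artemisinin control; nearly all actives have a fitted effect of over 60% in size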
- Experimental Context: P. falciparum in erythrocytes, SYBR Green DNA, 72 h; at 12.8 µM (top of the series); parasite line A
Records with an inconclusive call do not appear.
Listed here: items and their measured activity, negative = inhibition.
Give just the numeric value; % need not be written.

Ask | Using the record for O=C1c2ccccc2C(=O)C1c1ccccc1 , report its activity, negative = inhibition.
Reply | 17.2

Ask | Using the record for CC(=O)N(O)CCCCCNC(=O)CCC(=O)N(O)CCCCCNC(=O)CCC(=O)N(O)CCCCCN , report its activity, negative = inhibition.
Reply | 5.32

Ask | Using the record for CN(C(=O)CN(CCO)CC(=O)N(C)C(C)(C)Cc1ccccc1)C(C)(C)Cc1ccccc1 , report its activity, negative = inhibition.
Reply | 4.12
